Biological target: Metabotropic glutamate receptor 1 (Rattus norvegicus)
Sequence (P23385 whole entry): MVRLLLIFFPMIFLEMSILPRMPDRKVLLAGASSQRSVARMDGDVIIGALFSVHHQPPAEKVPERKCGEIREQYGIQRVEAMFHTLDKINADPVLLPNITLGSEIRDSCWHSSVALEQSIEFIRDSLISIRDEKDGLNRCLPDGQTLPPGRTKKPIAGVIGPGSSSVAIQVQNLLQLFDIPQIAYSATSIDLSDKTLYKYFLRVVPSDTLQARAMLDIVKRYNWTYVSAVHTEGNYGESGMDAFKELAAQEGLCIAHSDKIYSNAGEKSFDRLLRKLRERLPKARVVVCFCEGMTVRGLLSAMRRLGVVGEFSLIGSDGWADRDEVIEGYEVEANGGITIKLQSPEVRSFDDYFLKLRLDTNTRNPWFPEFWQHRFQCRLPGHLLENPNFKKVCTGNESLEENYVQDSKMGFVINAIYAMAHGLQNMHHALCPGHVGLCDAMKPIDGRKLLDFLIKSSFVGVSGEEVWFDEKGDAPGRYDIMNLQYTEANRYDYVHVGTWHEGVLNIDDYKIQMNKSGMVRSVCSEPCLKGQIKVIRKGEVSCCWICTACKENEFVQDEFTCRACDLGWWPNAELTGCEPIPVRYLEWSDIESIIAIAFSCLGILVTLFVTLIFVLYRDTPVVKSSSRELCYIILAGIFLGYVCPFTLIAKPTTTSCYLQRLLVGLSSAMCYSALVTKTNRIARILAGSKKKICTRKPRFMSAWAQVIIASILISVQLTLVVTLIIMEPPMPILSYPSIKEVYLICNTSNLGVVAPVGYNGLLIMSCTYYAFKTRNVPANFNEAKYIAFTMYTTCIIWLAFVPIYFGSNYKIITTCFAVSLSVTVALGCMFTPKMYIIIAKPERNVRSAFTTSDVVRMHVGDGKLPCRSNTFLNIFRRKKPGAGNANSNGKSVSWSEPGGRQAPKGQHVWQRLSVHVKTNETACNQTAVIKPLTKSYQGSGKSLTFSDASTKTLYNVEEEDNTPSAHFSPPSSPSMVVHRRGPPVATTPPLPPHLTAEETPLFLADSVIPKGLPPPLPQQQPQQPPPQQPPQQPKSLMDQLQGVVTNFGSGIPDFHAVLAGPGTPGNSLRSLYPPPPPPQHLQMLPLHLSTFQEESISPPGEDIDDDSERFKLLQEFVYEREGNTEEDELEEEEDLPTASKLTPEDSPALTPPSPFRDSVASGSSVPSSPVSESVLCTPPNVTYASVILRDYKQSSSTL
Experiment: Antagonistic activity against Metabotropic glutamate receptor 1 was determined
Assay type: functional
PROPERTY MEASURED: IC50
Returns: string containing the numeric result and its unit.

Q: Supply recorded IC50 for CC1(C)CC(N)(C(=O)O)c2ccc(C(=O)O)cc2O1 (stereo unspecified) here.
Result: 93 µM

The measurements presented in this section are drawn from ChEMBL document CHEMBL1129924.
